Listing: Efficacy of selected compounds
test system: M109; experiment: In vivo efficacy against Madison Murine lung carcinoma M109 tumors implanted sc and the drug given iv every day x 5 beginning 4 days post implantation.; format: functional, Mus musculus
value type: Efficacy

{"columns": ["compound", "readout number"],
 "data": [
  ["CSCO[C@H]1C[C@H]2OC[C@@]2(OC(C)=O)C2[C@H](OC(=O)c3ccccc3)[C@]3(O)CC(OC(=O)[C@H](O)[C@@H](NC(=O)OC(C)C)c4ccccc4)C(C)=C([C@@H](OC(C)=O)C(=O)[C@@]21C)C3(C)C (some centres undefined)", 0.5],
  ["CC(=O)O[C@H]1C(=O)[C@@]2(C)C([C@H](OC(=O)c3ccccc3)[C@]3(O)CC(OC(=O)[C@H](O)[C@@H](NC(=O)c4ccccc4)c4ccccc4)C(C)=C1C3(C)C)[C@]1(OC(C)=O)CO[C@@H]1C[C@@H]2OCOCCO (some centres undefined)", 0.9],
  ["CSCO[C@H]1C[C@H]2OC[C@@]2(OC(C)=O)C2[C@H](OC(=O)c3ccccc3)[C@]3(O)CC(OC(=O)[C@H](O)[C@@H](NC(=O)c4ccccc4)c4ccco4)C(C)=C([C@@H](OC(C)=O)C(=O)[C@@]21C)C3(C)C (some centres undefined)", 1.1],
  ["CCCCOC(=O)N[C@@H](c1ccccc1)[C@@H](O)C(=O)OC1C[C@@]2(O)[C@@H](OC(=O)c3ccccc3)C3[C@](C)(C(=O)[C@H](OC(C)=O)C(=C1C)C2(C)C)[C@@H](OCSC)C[C@H]1OC[C@@]31OC(C)=O (some centres undefined)", 0.2]
]}

The values you see were collected from ChEMBL document CHEMBL1134319.
